B1: LINE1-full (parent)
chain: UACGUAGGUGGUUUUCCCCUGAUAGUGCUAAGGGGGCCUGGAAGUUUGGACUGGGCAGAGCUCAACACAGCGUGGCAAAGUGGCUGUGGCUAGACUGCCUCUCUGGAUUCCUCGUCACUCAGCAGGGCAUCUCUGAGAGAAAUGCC

# Variants of: B1
# ASSAY INFO: self-cleavage, relative activity (ratio to wild type); higher = more cleavage; in vitro, sequencing; the parent is a self-cleaving ribozyme
Overview of reported self-cleavage across a group of variants:
Output spec: single numeric token, no unit.

MUTANT ID	READOUT NUMBER
U15A G33A	0.98
C71G	0.27
A22G A78G	0.94
A64U G72C	0.25
U1A A78C	1.65
G21A A65C	0.02
A77U U100C	1.58
U9A A140G	1.11

**Query** Retrieve self-cleavage measured for U1A U100C and print it.
**Result** 1.18

**Query** Retrieve self-cleavage measured for C18U A124U and print it.
**Result** 1.27

**Query** Retrieve self-cleavage measured for U52A U119A and print it.
**Result** 1.47

**Query** Retrieve self-cleavage measured for G105U A136G and print it.
**Result** 1.47
